# Tested system: T1, human Tissue Factor on human TF-positive cells (human, UniProt P13726 33-295)
# T1 construct: also called hTF; CD142
# Assay explanation: flow cytometry, antibody titration on A431 cells (human TF), 4-parameter fit of MFI
Parameter: EC50 (nM)
Only the number, expressed in nM, is required.

For the binder shown here, 25A (antibody, human IgG1, V domains shown, Human IgG1; also called antibody designated 25A) VH: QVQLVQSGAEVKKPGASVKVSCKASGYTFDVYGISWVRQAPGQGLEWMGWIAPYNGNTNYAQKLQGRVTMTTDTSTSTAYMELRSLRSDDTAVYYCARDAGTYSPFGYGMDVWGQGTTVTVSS VL: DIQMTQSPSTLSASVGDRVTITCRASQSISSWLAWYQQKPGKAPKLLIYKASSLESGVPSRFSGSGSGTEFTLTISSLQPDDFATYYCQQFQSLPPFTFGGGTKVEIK , give the reported EC50.
0.97
